Exercise: for every item that follows, state its recorded Specific activity (U/mg).
experimentalTarget: T1, FRET substrate GGGYG
T1 chain: GGGYG
Please append the unit to your numeric answer.

Sample ALE-1 glycylglycine endopeptidase (ALE-1) (protein) STKVDAPKVEQEAPAKADAPKVEQEAPAKADAPKVEQEAPAKVDAPKVEQEAPAKVDAPKVEQEAPAKADAPKVEQKRTFVREAAQSNHSASWLNNYKKGYGYGPYPLGINGGNHYGVDFFMNVGTPVRAISDGKIVEAGWTNYGGGNEIGLVENDGVHRQWYMHLSKFNVKVGDRVKAGQIIGWSGSTGYSTAPHLHFQRMTNSFSNNTAQDPMPFLKSAGYGSNSTSSSNNNGYKTNKYGTLYKSESASFTANTDIITRLTGPFRSMPQSGVLRKGLTIKYDEVMKQDGHVWVGYNTNSGKRVYLPVRTWNESTGELGPLWGTIK — what was its Specific activity (U/mg)?
0 U/mg

Sample Las A protein (LasA or LAS) (protein) APPSNLMQLPWRQGYSWQPNGAHSNTGSGYPYSSFDASYDWPRWGSATYSVVAAHAGTVRVLSRCQVRVTHPSGWATNYYHMDQIQVSNGQQVSADTKLGVYAGNINTALCEGGSSTGPHLHFSLLYNGAFVSLQGASFGPYRINVGTSNYDNDCRRYYFYNQSAGTTHCAFRPLYNPGLAL — what was its Specific activity (U/mg)?
29 U/mg

Sample Aeromonas hydrophila proteinase (AhP) (protein) AGGQFQLPWRQGYSWKANGAHSHTGSGYPYSSIDVSYDWPGWGGATYTVTAANSGTVTVFSRCQVRVTATNGWATNYYHMSGISVRSGDYVAADTPIGTYASNRNEALCEGGSSTGPHLHFSLLYNGVFQSLQGQRLSSYAVNVGASNYDDNCNRFWLYNQRNGQRYCAWQPLYNNGID — what was its Specific activity (U/mg)?
98 U/mg

Sample β-lytic metalloprotease (beta-lytic metallopeptidase; BLP) (protein) SPNGLLQFPFPRGASWHVGGAHTNTGSGNYPMSSLDMSRGGGWGSNQNGNWVSASAAGSFKRHSSCFAEIVHTGGWSTTYYHLMNIQYNTGANVSMNTAIANPANTQAQALCNGGQSTGPHEHWSLKQNGSFYHLNGTYLSGYRITATGSSYDTNCSRFYLTKNGQNYCYGYYVNPGPN — what was its Specific activity (U/mg)?
74 U/mg

Sourced from patent US20210071114
